test system: NCI-H226 lung; test: NCI tumour cell line growth inhibition, 48 h
attribute.measured: GI50

The cases that follow already have their GI50 on record.
COc1cccc2c1C(=O)c1c(O)c3c(c(O)c1C2=O)C[C@@](O)(C(=O)CO)C[C@@H]3OC1C[C@H](N)[C@H](O)[C@H](C)O1 (some centres undefined) ... 0.0201 µM
CN(C)C(=O)c1cc2cnc(Nc3ccc(-c4csc5c(=O)cc(N6CCOCC6)oc45)cc3)nc2n1C1CCCC1 ... 0.229 µM
CO[C@@H]1/C=C(C)/C=C/[C@@H](C)/C=C(\C)C(=O)OC(/C(C)=C/C=C(\C)CNC(=O)[C@H](CO)NC=O)[C@@H](C)/C=C/C=C/[C@H](OC)CC/C=C(C)/C=C/C1 (some centres undefined) ... < 0.005 µM
c1cn2cc(-c3ccc4cn[nH]c4c3)nc(Nc3ccc(N4CCOCC4)cc3)c2n1 ... 4.82 µM

Here's the next entry for you.
Which GI50 is listed for COc1ccc(Cl)cc1NC(=O)C(Br)C(Br)C(=O)O (centres undefined) ?
13.7 µM

====

system: SF-539 CNS; test: NCI tumour cell line growth inhibition, 48 h; in the data active = GI50 below about 0.43 µM; inactive = the rest
Would you mind answering with one of these outcomes? yes (1) = active, no (0) = inactive

Cc1cc(Cc2cc(C)cc(C(C)(C)C)c2O)c(O)c(C(C)(C)C)c1 ... no (0)
NS(=O)(=O)c1cccc(N=Cc2c(O)[nH]c3ccccc23)c1 ... no (0)
O=C(O)c1cc2cc(OCc3ccccc3)c(OCc3ccccc3)cc2[nH]1 ... no (0)
CC(=O)OCC1OC(OC2CC3C(C)(C)C(O)CC[C@]3(C)C3CCC45CC4(CC[C@H]5C(C)CC(O)C4OC4(C)C)[C@]23C)C(O)C(O)C1O (some centres undefined) ... no (0)
O=Nc1ccc2ccccc2c1O ... no (0)
O=[Se](=O)c1ccccc1.O=[Se](=O)c1ccccc1.[Cu] ... no (0)
O=C(N/N=C/c1ccc([N+](=O)[O-])cc1)c1ccc2nc(-c3ccc(Cl)cc3)[nH]c2c1 ... no (0)
C=CCC(N[C@H](CO)c1ccccc1)c1cn(C(=O)OCC)c2ccccc12 (some centres undefined) ... no (0)
Cc1cc(C)c(O)c(CN(C)Cc2cc(Cl)cc(Cl)c2O)c1 ... no (0)
O=C(N/N=C/c1ccccc1O)C(=O)Nc1ccc(F)cc1 ... no (0)

What classification did O=C(c1ccco1)c1c(C(F)(F)F)n([O-])c2ccccc2[n+]1=O end up with in this test?
yes (1)

Same for O=c1[nH]cnc2[nH]ncc12
no (0)

Now this one: COc1cccc2c1C(=O)c1c(O)c3c(c(O)c1C2=O)C[C@@](O)(C(=O)CO)C[C@@H]3OC1C[C@H](N)[C@H](O)[C@H](C)O1 (some centres undefined)
yes (1)

Follow-up entry: C=C1C(=O)O[C@H]2[C@H]1CC/C(COC(=O)NCCc1c[nH]c3ccc(OC)cc13)=C\CC[C@@]1(C)O[C@@H]21
no (0)

====

tested on: RXF 393 renal; assay: NCI tumour cell line growth inhibition, 48 h
Lab note: compare TGI against 30 µM. Equal or greater, write Criterion met. Smaller, write Criterion not met.

Below, 4 compounds whose answers are already recorded.
COc1ccc2c(c1)N=C1CSC(c3ccccc3Cl)N1C2 (centres undefined) ... Criterion not met
Cc1cn(CC2=NCC(C)(C)N2)c(=O)[nH]c1=O ... Criterion met
C#CC(F)(F)[C@]1(O)CC[C@H]2[C@@H]3CCC4=CC(=O)CCC4=C3[C@@H](c3ccc(C(C)=O)cc3)C[C@@]21C ... Criterion met
Cc1c(C)[n+](=O)c(C)c(C)n1[O-] ... Criterion met

Assess whether reported TGI for Cc1ccc(C(C2C(=O)N(C)C(=O)N(C)C2=O)C(F)(F)C(=O)N(C)C)cc1 (centres undefined) sits at 30 µM or higher.
Criterion met
